Listed here: items and their measured pIC50.
biological target: UniProtKB P08684; assay: CYP3A4 inhibitory activity: Luciferin-IPA (P450-Glo) assay with human liver microsome
Sequence (P08684 whole entry): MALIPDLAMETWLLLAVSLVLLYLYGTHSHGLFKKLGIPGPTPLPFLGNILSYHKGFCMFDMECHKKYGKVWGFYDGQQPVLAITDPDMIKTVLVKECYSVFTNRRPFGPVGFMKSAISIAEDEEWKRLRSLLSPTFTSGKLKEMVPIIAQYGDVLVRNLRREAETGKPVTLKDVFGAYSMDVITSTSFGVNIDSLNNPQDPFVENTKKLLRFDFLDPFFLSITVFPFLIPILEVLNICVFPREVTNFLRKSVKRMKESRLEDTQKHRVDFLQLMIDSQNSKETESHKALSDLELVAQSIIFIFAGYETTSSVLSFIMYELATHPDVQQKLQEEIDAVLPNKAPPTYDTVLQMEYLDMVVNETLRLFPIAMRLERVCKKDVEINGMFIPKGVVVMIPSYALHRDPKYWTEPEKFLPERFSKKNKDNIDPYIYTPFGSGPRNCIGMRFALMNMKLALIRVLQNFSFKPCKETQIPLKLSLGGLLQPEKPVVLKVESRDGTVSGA
pIC50: −log10 of the molar value.

COc1cc(NC(=O)c2cnc3ccccc3n2)c(-c2nnn(-c3ccc(CCN4CCc5cnccc5C4)cc3)n2)cc1OC 6.00 to 6.30

What value of measured pIC50 is listed for `COC(=O)c1ccc(-c2nnn(-c3ccc(CCN(C)Cc4ccc5c(cnn5C)c4)cc3)n2)c(NC(=O)c2cc(=O)c3ccccc3o2)c1` ? < 6.00

Find the recorded pIC50 belonging to `COc1cc(NC(=O)c2cnc3ccccc3c2)c(-c2nnn(-c3ccc(CCN4CCc5cnccc5C4)cc3)n2)cc1OC` and report it. 6.60 to 7.00

State the recorded pIC50 for this entry: `COc1cc(NC(=O)c2cc(=O)c3ccccc3o2)c(-c2nnn(-c3ccc(CCN4CCc5ccc(-n6ccnc6)cc5C4)cc3)n2)cc1OC` 6.30 to 6.60

Fill in: pIC50 of `COc1cc2c(cc1OC)CN(CCc1ccc(-n3nnc(-c4cc(OCCc5cccnc5)ccc4NC(=O)c4cc(=O)c5ccccc5o4)n3)cc1)CC2` is ___ 6.00 to 6.30
